B1: TPR 5TU (parent)
chain: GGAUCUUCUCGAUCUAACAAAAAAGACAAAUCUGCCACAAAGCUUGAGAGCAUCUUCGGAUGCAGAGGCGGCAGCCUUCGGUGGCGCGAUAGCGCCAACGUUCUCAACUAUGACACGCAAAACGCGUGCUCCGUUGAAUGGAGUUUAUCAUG

Variants of: B1
Assay name: polymerase ribozyme fitness, log enrichment relative to wild type (log ratio); higher = more active; in vitro selection for triplet polymerase activity
Variants at the floor of the assay were thinned out.
Property: polymerase ribozyme fitness (log ratio)

# lookup: polymerase ribozyme fitness (log ratio) of C5G G25C C54A C75G G83U ≤ -4.2

Attention now shifts to the item below.
# lookup: polymerase ribozyme fitness (log ratio) of A24C C32U A39U U90A C95G A138U U144A ≤ -4.2

These entries and their values trace back to the RNAGym collection of RNA variant scans (doi:10.1073/pnas.2313332121).
